Values from patent US20220282217A1

# tested_on: T1, HLA-A24.02 (human)
# T1 construct: As for HLA-A02.01
# assay_summary: competition vs radiolabeled reference peptide on purified MHC I, gel filtration
# Description: Peptides were incubated at varying concentrations with these complexes for 2 days, and the amount of remaining radiolabeled peptide bound to […] was measured using size exclusion gel-filtration.
Assign pIC50 to each entry below.
# pIC50 is unitless: minus log10 of the molar concentration; print number only

response.value for VVPLSDLLL (also called ESR1, Y537S) (field: pIC50) = 5.08

Sure, the documented pIC50 for RRMPPCLANF (also called C15ORF40(+1)) is 6.85

pIC50 reading for RLSSVLQRF (also called β2M, . . ; SQIS) : 7.55

pIC50 reading for VVPLCDLLL (also called ESR1, Y537C) : 5.41

Entry GVYTFLPSTL (also called ESR1, S463P) ; pIC50 = 5.11

Input RMPPCLANF (also called C15ORF40(+1)) . Output pIC50: 8.06

Per the record, YLVIQLQDKF (also called EGFR: SEPT14) has pIC50 of 5.67

get_value(item= VVPLYGLLL (also called ESR1, D538G) , readout=pIC50) returns 6.18

Data point: EYMANGSLL (also called BTK, C481S) ; pIC50 = 8.30

Note to self: pIC50 recorded for LYGLLLEML (also called ESR1, D538G) was 9.10

# pIC50 of FFCYILNTMF (also called CNOT1(-1)) = 7.13

According to the records, this binder KFPELLCVW (also called β2M, . . ; SIRH) displays pIC50 of 7.86

Reported pIC50 ( GFKLFSCLSF (also called C15ORF40(+1)) ) = 6.19

So, KGPELFPLI (also called C11orf95: RELA) ? Its pIC50 was 7.85
